Tested on: Felis catus
Assay: In vivo inhibition of beta-adrenoceptor in cat assessed as inhibition of isoproterenol-induced tachycardia at 0.1 mg/kg, iv relative to control
Format: functional
reported_endpoint: inhibition in vivo at 0.1 mg/kg (%)
Numbers only, in %.

Below are worked cases with known answers.
compound	value_unit	inhibition in vivo at 0.1 mg/kg
CC(C)NCC(O)c1cc(Br)cs1 (racemic)	%	70
CC(C)(C)NCC(O)c1cc(Br)c(Br)s1 (racemic)	%	87.5
CC(C)(C)NCC(O)c1sc(Cl)c(Cl)c1Cl (racemic)	%	69
CC(C)NCC(O)c1cc(Cl)cs1 (racemic)	%	62
CC(C)(C)NCC(O)c1sc(Cl)cc1Cl (racemic)	%	65

Now let's try a different one.
The observed inhibition in vivo at 0.1 mg/kg for CC(C)(C)NCC(O)c1sc(Br)cc1Br (racemic) when tested with Felis catus stands at 50

----------
System: Felis catus
Assay: In vivo inhibition of beta-adrenoceptor in cat assessed as inhibition of isoproterenol-induced tachycardia at 0.1 mg/kg, iv relative to control
Format: functional
Rule: inhibition in vivo at 0.1 mg/kg of 70% or more gives t; anything lower gives f.

Completed entries (count: 2):
compound	classification
CC(C)(C)NCC(O)c1sc(Br)c(Br)c1Br (racemic)	t
CC(C)NCC(O)c1cc(Br)c(Br)s1.Cl (racemic)	t

Prompt line: Quick check, inhibition in vivo at 0.1 mg/kg >= 70%? CC(C)NCC(O)c1ccc(Br)s1.Cl (racemic)
Response line: f

Prompt line: Dear colleague, could you confirm whether CC(C)NCC(O)COc1cccc2ccccc12 (stereo not drawn) [PROPRANOLOL] has inhibition in vivo at 0.1 mg/kg at or above 70%?
Response line: t

Prompt line: Form field: inhibition in vivo at 0.1 mg/kg at least 70%? Entry: CC(C)(C)NCC(O)c1cc(Br)cs1 (racemic)
Response line: f

Prompt line: Check this compound for inhibition in vivo at 0.1 mg/kg at or above 70%: CC(C)NCC(O)c1sc(Cl)c(Cl)c1Cl (racemic)
Response line: f

Prompt line: Is inhibition in vivo at 0.1 mg/kg at least 70%? Consider CC(C)(C)NCC(O)c1scc(Br)c1Br (racemic)
Response line: f

Prompt line: Quick check: does CC(C)NCC(O)c1sc(Br)c(Br)c1Br (racemic) have inhibition in vivo at 0.1 mg/kg greater than or equal to 70%?
Response line: f

----------
Test system: Rattus norvegicus
Experiment: In vivo inhibition of beta-adrenoceptor in Wistar rat assessed as inhibition of isoproterenol-induced tachycardia at 4 mg/kg, iv relative to control
Type: functional
reported_endpoint: inhibition in vivo at 4 mg/kg (%)
Answers are plain numbers, in %.

molecule	inhibition in vivo at 4 mg/kg, %
CC(C)(C)NCC(O)c1sc(Cl)cc1Cl (racemic)	75
CC(C)(C)NCC(O)c1sc(Cl)c(Cl)c1Cl (racemic)	89
CC(C)(C)NCC(O)c1scc(Br)c1Br (racemic)	95
CC(C)NCC(O)c1cc(Br)cs1 (racemic)	89.5
CC(C)NCC(O)c1sc(Cl)cc1Cl (racemic)	70

Turning now to a further molecule:
// recorded inhibition in vivo at 4 mg/kg for CC(C)(C)NCC(O)c1ccc(Br)s1 (racemic) : 55.5

----------
Assay: Acute toxicity in iv dosed mouse
Conditions: in vivo
reported_endpoint: LD50

// input: 5 compounds below; output: LD50 for each
1. CC(C)(C)NCC(O)c1cc(Br)cs1 (racemic)
2. CC(C)NCC(O)c1sc(Br)c(Br)c1Br (racemic)
3. CC(C)NCC(O)c1sc(Br)cc1Br (racemic)
4. CC(C)NCC(O)c1sccc1Cl (racemic)
5. CC(C)NCC(O)c1cc(Br)c(Br)s1.Cl (racemic)

Response line:
["35 mg/kg", "35 mg/kg", "35 mg/kg", "38 mg/kg", "45 mg/kg"]

The compound CC(C)(C)NCC(O)c1sc(Br)c(Br)c1Br (racemic) showed LD50 equal to 32 mg/kg
